tested on: HOP-92; assay: NCI tumour cell line growth inhibition, 48 h
Calls of active or inactive are those of the source. Cut-off read from the data, not from the text of the source: active = GI50 up to about 1.1 µM and inactive = higher.

COMPOUND: Clc1ccc(Nc2nn3c(CCCCCCCCc4nnc5sc(Nc6ccc(Cl)cc6)nn45)nnc3s2)cc1
GI50: > 100 µM (inactive)
--
COMPOUND: COc1ccc(/N=N/C(=N\c2ccc(Cl)cc2)c2ccc(N(CCC#N)CCC#N)cc2)cc1
GI50: 33.2 µM (inactive)
--
COMPOUND: CN(N=O)C(=N)NC(=O)c1ccccc1
GI50: > 100 µM (inactive)
--
COMPOUND: C#CCSc1nc(N)c2ncn(C3OC(COP(=O)(O)O)C(O)C3O)c2n1 (stereo not given)
GI50: > 239 µM (inactive)
--
COMPOUND: COC(=O)C1=C(C)NC2=C(C(=O)c3ccccc32)C1c1c[nH]nc1-c1ccccc1 (stereo not given)
GI50: > 100 µM (inactive)

###

system: HT-29; assay: NCI tumour cell line growth inhibition, 48 h
Activity calls are given as the source filed them. Rule as the data show it: active = GI50 up to about 1.1 µM and inactive = higher. Square brackets hold non-standard residues; d marks the D form. Peptide text beside a SMILES is read from it. * marks the point of attachment. NMeV = CN[C@H](C(=O)O)C(C)C; X28 = COc1ccc(CN*)c(OC)c1; Octanoyl = CCCCCCCC(=O)*; dNMeA = CN[C@H](C)C(=O)O
Outcome codes: Yes (active), No (inactive)

COMPOUND: NC(CCC(=O)NC(CSC(=O)N(O)c1ccccc1)C(=O)NCC(=O)O)C(=O)O (centres undefined)
CLASS NAME: No
//
COMPOUND: O=c1c2ncn(C3CC(O)C(CO)O3)c2nnn1Cc1ccccc1[N+](=O)[O-] (centres undefined)
CLASS NAME: No
//
COMPOUND: O=C1/C(=C/c2ccccc2)CN(C(=O)/C=C/c2ccccc2)C/C1=C\c1ccccc1
CLASS NAME: No
//
COMPOUND: CC(=O)NC1C(OCc2ccccc2)OC(CO)C(O)C1OCC(=O)NC(C)C(=O)NC(CCC(=O)NCCCCCC(=O)Nc1ccc2c(c1)CN1C(=O)c3ccccc3C1=N2)C(N)=O (centres undefined)
CLASS NAME: No
//
COMPOUND: Cc1c(O)c(=O)ccn1CCO
CLASS NAME: No
//
COMPOUND: COC1CC(COCc2ccccc2)CC(OC)O1 (centres undefined)
CLASS NAME: No
//
COMPOUND: O=C1/C(=C/c2ccc3c(c2)OCO3)CCC1CN1CCOCC1 (centres undefined)
CLASS NAME: No
//
COMPOUND: COc1cc2c(cc1OC)C(=O)C(C1=C(SC(=N)N)C(=O)c3cc(OC)c(OC)cc31)C2 (centres undefined)
CLASS NAME: No
//
COMPOUND: Cc1c(O)c(=O)ccn1CCN
CLASS NAME: No
//
COMPOUND: CNS(=O)(=O)NN(C)S(=O)(=O)c1ccc(Br)cc1
CLASS NAME: No
//
COMPOUND: CC(C)(C)OC(=O)NC(Cc1ccc(OC(C)(C)C)cc1)C(=O)N[C@H]1CC[C@H](C(=O)O)C1 (some centres undefined)
CLASS NAME: No
//
COMPOUND: CC(=O)Nc1ccc(C(=O)NN2C(=O)C(Cl)C2c2ccc([N+](=O)[O-])cc2)cc1 (centres undefined)
CLASS NAME: No
//
COMPOUND: O=[N+]([O-])c1cccc2nc3ccccc3c(NCCc3cccc[n+]3[O-])c12
CLASS NAME: Yes
//
COMPOUND: CCCCCCCC(=O)N[C@H](C(=O)N[C@H](C(=O)N(C)[C@H](C(=O)N1CCC[C@H]1C(=O)N(C)[C@H](C)C(=O)NCc1ccc(OC)cc1OC)C(C)C)C(C)C)C(C)C (Octanoyl-VV[NMeV]P[dNMeA]-X28)
CLASS NAME: No
//
COMPOUND: Cc1cn(CCCCOC(=O)NC(CCCNC(N)=O)C(=O)O)c(=O)[nH]c1=O (centres undefined)
CLASS NAME: No
//
COMPOUND: O=C(CCc1ccc(O)c(O)c1)c1ccc(O)c(O)c1O
CLASS NAME: No
//
COMPOUND: CC(C)(C)OC(=O)N1CCc2c(n(C/C=C/c3ccccc3)[nH]c2=O)C1
CLASS NAME: No
//
COMPOUND: O=C1C2=Cc3ccccc3CCN2c2ccc([N+](=O)[O-])cc21
CLASS NAME: No
//
COMPOUND: CCOC(=O)C(Cl)(Cl)/S(=N\S(=O)(=O)c1ccccc1)NC(=O)c1ccccc1 (centres undefined)
CLASS NAME: No

###

test system: SK-MEL-5; assay: NCI tumour cell line growth inhibition, 48 h
Active and inactive are the calls of the source. Cut-off read from the data, not from the text of the source: active = GI50 up to about 1.1 µM and inactive = higher.
Outcome codes: active, inactive

COMPOUND: Cc1nc2c(cc1C(=O)N/N=C/c1ccc([N+](=O)[O-])cc1)c(=O)n(C)c(=O)n2C
CLASS NAME: inactive
//
COMPOUND: NC(CC(=O)O)(Cc1ccccc1)C(=O)O (stereo not given)
CLASS NAME: inactive
//
COMPOUND: O=C(c1cc(Cl)ccc1Cl)N1CCN(c2cccc(Cl)c2)CC1
CLASS NAME: inactive
//
COMPOUND: O=C(O)COc1cc(-c2ccccc2)nc2ccc(F)cc12
CLASS NAME: inactive
//
COMPOUND: C[C@@H]([C@H]1CC[C@@]2(C)[C@@H]3CC[C@@H]4C(=CC3=CC[C@]12C)CC[C@H](N(C)C)C4(C)C)N(C)C
CLASS NAME: inactive
//
COMPOUND: COc1cc(C2c3cc4c(cc3[C@@H](NCCN3CCCCC3)C3COC(=O)[C@H]23)OCO4)cc(OC)c1O (stereo not given in full)
CLASS NAME: active
//
COMPOUND: COc1ccc(-n2sc3ncc(C)cc3c2=O)cc1
CLASS NAME: inactive
//
COMPOUND: CCOC(=O)C1=C(O)C(=O)c2cc(C)ccc2C1=O
CLASS NAME: inactive
//
COMPOUND: CN(C)c1ccc(Cc2cc3c(O)ccc(O)c3cc(Cc3ccc(N(C)C)cc3)c2=O)cc1
CLASS NAME: inactive
//
COMPOUND: Cc1cc(C)c2c(O)c(S(=O)(=O)c3ccc(Cl)cc3)c(=O)oc2c1
CLASS NAME: inactive

###

tested on: MOLT-4; experiment: NCI tumour cell line growth inhibition, 48 h
The source made the active and inactive calls. No stated cut-off is given here; in the data, active = GI50 up to about 1.1 µM and inactive = higher.
Quick list: GI50 per entry.
PARAMETER: GI50

MOLECULE: COc1cc2c(SCCN(C)C)nc3ccccc3c2c2ccccc12
PARAMETER: GI50
RESULT: 1.54 µM (inactive)

MOLECULE: Cc1cc(/N=C/c2ccc(Cl)cc2)n(-c2ccccc2)n1
PARAMETER: GI50
RESULT: 32.2 µM (inactive)

MOLECULE: COc1ccc2cc3[n+](cc2c1O)CCc1cc2c(cc1-3)OCO2 [BERBERRUBINE CHLORIDE]
PARAMETER: GI50
RESULT: 52.8 µM (inactive)

MOLECULE: COC1CC(COCc2ccccc2)CC(OC)O1 (stereo unspecified)
PARAMETER: GI50
RESULT: > 100 µM (inactive)

MOLECULE: CCN(CC)c1ccc(C2N3CCCCC3[C@@H]3c4[nH]c5ccccc5c4CCN23)cc1 (stereo partly specified)
PARAMETER: GI50
RESULT: 25.5 µM (inactive)

MOLECULE: NCc1ccccc1.O=C(O)NCc1ccccc1
PARAMETER: GI50
RESULT: 18.8 µM (inactive)

###

system: SK-MEL-2; test: NCI tumour cell line growth inhibition, 48 h
Counter-ions that a name gives are not always drawn. Active and inactive are the calls of the source. No stated cut-off is given here; in the data, active = GI50 up to about 1.1 µM and inactive = higher.
PARAMETER: GI50

COMPOUND: O=[N+]([O-])c1cccc2nc3ccccc3c(NCCc3cccc[n+]3[O-])c12
PARAMETER: GI50
RESULT: 0.0619 µM (active)
//
COMPOUND: CN(N=O)C(=N)NC(=O)c1ccccc1
PARAMETER: GI50
RESULT: > 100 µM (inactive)
//
COMPOUND: N/C(=C\c1ccc(OCc2ccccc2)c(OCc2ccccc2)c1[N+](=O)[O-])C(=O)O
PARAMETER: GI50
RESULT: > 100 µM (inactive)
//
COMPOUND: CC(=O)OC1C[C@H]2C(OC(=O)c3ccccc3)C3C4(OC(C)=O)COC4C[C@H](OC(C)=O)[C@@]3(C)C(OC(C)=O)[C@H](OC(C)=O)C(=C1C)C2(C)C (stereo not given in full)
PARAMETER: GI50
RESULT: 33.3 µM (inactive)
//
COMPOUND: CC1CC(N2CCOCC2)=Nc2ccccc2N1C (stereo not given)
PARAMETER: GI50
RESULT: > 100 µM (inactive)
//
COMPOUND: C=CC(C)(C)n1cc(C2=C(O)C(=O)C(c3cn(C(C)(C)C=C)c4ccccc34)=C(O)C2=O)c2ccccc21
PARAMETER: GI50
RESULT: 1.73 µM (inactive)
//
COMPOUND: Cc1nc2c(cc1C(=O)N/N=C/c1ccc([N+](=O)[O-])cc1)c(=O)n(C)c(=O)n2C
PARAMETER: GI50
RESULT: 31.8 µM (inactive)
//
COMPOUND: CC1OC(OC2CCCc3c(O)c4c(c(O)c32)C(=O)c2ccccc2C4=O)CC(N)C1O (stereo not given)
PARAMETER: GI50
RESULT: 1.75 µM (inactive)
//
COMPOUND: CCSCCCCC(c1ccc(O)cc1)C(C)(CC)c1ccc(O)cc1 (stereo not given)
PARAMETER: GI50
RESULT: 16 µM (inactive)
//
COMPOUND: COC(=O)/C=C/c1ccc2nncnc2c1.COC(=O)/C=C\c1ccc2nncnc2c1
PARAMETER: GI50
RESULT: 48.6 µM (inactive)
//
COMPOUND: O=C(Nc1ccc(F)cc1)c1cc2ccc(O)cc2o/c1=N\c1cccc(F)c1
PARAMETER: GI50
RESULT: 42.2 µM (inactive)
//
COMPOUND: O=C(O)/C=C/n1c2ccccc2c(=O)c2ccccc21
PARAMETER: GI50
RESULT: > 100 µM (inactive)
//
COMPOUND: O=C(CCCN1CCC(Nc2ccccc2)(c2nnnn2C2CCCCC2)CC1)c1ccc(F)cc1
PARAMETER: GI50
RESULT: 4.21 µM (inactive)
//
COMPOUND: O=c1c2ncn(C3CC(O)C(CO)O3)c2nnn1Cc1ccccc1[N+](=O)[O-] (stereo not given)
PARAMETER: GI50
RESULT: 4.78 µM (inactive)
//
COMPOUND: CN1[C@@H]2C[C@@H](OC(=O)[C@H](CO)c3ccccc3)C[C@H]1[C@@H]1O[C@@H]12 [SCOPOLAMINE HYDROBROMIDE]
PARAMETER: GI50
RESULT: > 100 µM (inactive)
//
COMPOUND: C[N+](C)(C)CC1CCCC1=O (stereo not given)
PARAMETER: GI50
RESULT: 5.61 µM (inactive)
//
COMPOUND: CC1OC1C(=O)C1(O)C(C)C(O)C23OC2(C(O)c2c(O)cccc2C3=O)C1O (stereo not given)
PARAMETER: GI50
RESULT: 0.142 µM (active)
//
COMPOUND: C=CCN1C(=O)CS/C1=N\NC(=O)CSc1nc2ccccc2c(=O)n1CC
PARAMETER: GI50
RESULT: > 100 µM (inactive)
//
COMPOUND: Cc1cc(C)c2c(c1)CC1(Cc3c(C)cc(C)cc3C1=O)C2=O (stereo not given)
PARAMETER: GI50
RESULT: > 100 µM (inactive)
//
COMPOUND: Cn1c2c(c3c(=O)[nH]ncc31)CCc1ccccc1-2
PARAMETER: GI50
RESULT: 24.6 µM (inactive)
